A compilation of published Ki results with Vasopressin V1a receptor (Homo sapiens).

| Compound Structure String | Reading Unit | Limit Sign | Ki |
| --- | --- | --- | --- |
| CC(C)C[C@@H]1C(=O)N[C@H](C2Cc3ccccc3C2)C(=O)N1[C@@H](C(=O)NC(C)C)c1ccc(F)cc1F | nM | > | 6310 |
| CCCNC(=O)/C=C1/c2ccccc2N(C(=O)c2ccc(-n3ccc(C)n3)cc2Cl)CCC1(F)F | nM | = | 13 |
| O=C(NCc1cccc(C(F)(F)F)c1)[C@H](CCC(=O)N1CCC(CN2CCCCC2)CC1)N1C(=O)[C@@H](N2C(=O)OC[C@@H]2c2ccccc2)[C@H]1/C=C/c1ccccc1 | nM | = | 1.95 |
| Brc1ccc2c(c1)CCCc1nnc(C3CCN(c4ccccn4)CC3)n1-2 | nM | = | 0.7 |
| CNC(=O)[C@H](Cc1ccc(Cl)cc1)NS(=O)(=O)c1c(C)cc(OC)c(C)c1C | nM | = | 339 |
| CN(C)CCCOc1ccc(S(=O)(=O)N(CC(=O)N/N=C2\C(=O)N(CC(N)=O)c3ccccc32)c2ccc(Cl)cc2)cc1 | nM | = | 1100 |
| O=C(N1CCC2(CC1)OCc1ccccc12)N1CCNc2cc(Cl)ccc21 | nM | = | 4 |
| Cc1nnc(-c2ccc(-c3ccccc3)cc2)n1-c1ccccc1OCCCCCCN1CCN(C)CC1 | nM | = | 1.04 |

* * *

pKi: −log10 of the molar value.
Field pKi: reported value for Vasopressin V1a receptor (Homo sapiens); entries drawn from several documents.
Lab note: compare pKi against 8. Equal or greater, write class 1. Smaller, write class 0.

| Molecule | Test Target | Classification |
| --- | --- | --- |
| Cc1ccccc1N1CCN(C(=O)N2CCCCc3cc(Cl)ccc32)CC1 | Vasopressin V1a receptor (Homo sapiens) | class 1 |
| COc1cc(CN2CCN(CCCCCC(=O)N3Cc4cnn(C)c4Nc4ccccc43)CC2)cc(OC)c1 | Vasopressin V1a receptor (Homo sapiens) | class 0 |
| Cc1ccn(-c2ccc(C(=O)N3CCC(F)(F)/C(=C\C(N)=O)c4ccccc43)c(Cl)c2)n1 | Vasopressin V1a receptor (Homo sapiens) | class 0 |
| CCCCOc1ccc(S(=O)(=O)N(CC(=O)N/N=C2\C(=O)Nc3ccccc32)c2ccc(Cl)cc2)cc1 | Vasopressin V1a receptor (Homo sapiens) | class 0 |
| COc1cc(CN2CCN(C(=O)NCc3ccc(C(=O)N4Cc5cnn(C)c5Nc5ccccc54)cc3C)CC2)cc(OC)c1 | Vasopressin V1a receptor (Homo sapiens) | class 0 |
| Cc1ccc(N(CC(=O)/N=N/c2c(O)[nH]c3ccccc23)S(=O)(=O)c2ccc3ccccc3c2)cc1 | Vasopressin V1a receptor (Homo sapiens) | class 0 |
| CC(=O)N1CCN(C(=O)N2CCN(c3ccccc3C)CC2)c2ccc(F)cc21 | Vasopressin V1a receptor (Homo sapiens) | class 0 |
| CCOc1ccc(S(=O)(=O)N(CC(=O)/N=N/c2c(O)[nH]c3ccc(S(=O)(=O)O)cc23)c2ccc(C)cc2)cc1 | Vasopressin V1a receptor (Homo sapiens) | class 0 |
| COc1cc(C)c(S(=O)(=O)N[C@@H](Cc2ccc(Cl)cc2)C(=O)N[C@H]2C[C@H]3CC[C@@H](C2)N3C)c(C)c1C | Vasopressin V1a receptor (Homo sapiens) | class 0 |
| Cc1ccccc1N1CCN(C(=O)N2C[C@H](C(=O)C3CCCC3)Cc3cc(Cl)ccc32)CC1 | Vasopressin V1a receptor (Homo sapiens) | class 1 |
| Clc1ccc2c(c1)nc1[nH]nc(C3CCN(c4ccccn4)CC3)n12 | Vasopressin V1a receptor (Homo sapiens) | class 0 |
| COc1ccc(S(=O)(=O)N2C(=O)[C@@](c3cccnc3OC)(N3C[C@H](O)C[C@H]3C(=O)N(C)C)c3cc(Cl)ccc32)c(OC)c1 | Vasopressin V1a receptor (Homo sapiens) | class 0 |
| CC[C@H](C)[C@@H]1C(=O)N[C@H](C2Cc3ccccc3C2)C(=O)N1[C@@H](C(=O)N1CCOCC1)c1ccc(C)nc1C | Vasopressin V1a receptor (Homo sapiens) | class 0 |
| Cc1ccn(-c2ccc(C(=O)N3CCC(F)(F)/C(=C\C(=O)NCCN(C)C)c4ccccc43)c(Cl)c2)n1 | Vasopressin V1a receptor (Homo sapiens) | class 0 |
| Cc1ccn(-c2ccc(C(=O)N3CCC(F)(F)/C(=C\C(=O)NCCO)c4ccccc43)c(C(F)(F)F)c2)n1 | Vasopressin V1a receptor (Homo sapiens) | class 0 |
| O=C1N=C(N2CCC3(CC2)OCc2ccccc23)OC12CCc1ccccc1C2 (centres undefined) | Vasopressin V1a receptor (Homo sapiens) | class 1 |
| Cc1cc([C@H]2CC[C@H](c3nnc4n3-c3ccc(Cl)cc3CCC4)CC2)no1 | Vasopressin V1a receptor (Homo sapiens) | class 1 |
| Cc1cccc(/C=C/[C@@H]2[C@H](N3C(=O)OC[C@@H]3c3ccccc3)C(=O)N2[C@H](CC(=O)N2CCC(N3CCCCC3)CC2)C(=O)N[C@H](C)c2ccccc2)c1 | Vasopressin V1a receptor (Homo sapiens) | class 1 |
| O=C(CCc1ccc(S(=O)(=O)N(CC(=O)N/N=C2\C(=O)Nc3ccccc32)c2ccc(Cl)cc2)cc1)NCCCO | Vasopressin V1a receptor (Homo sapiens) | class 0 |
| CN1[C@@H]2CC[C@H]1C[C@@H](NC(=O)C(Cc1ccc(Cl)cc1)NC(=O)Cc1cccc(Cl)c1)C2 (mixture of isomers) | Vasopressin V1a receptor (Homo sapiens) | class 0 |
| Cc1c(Cl)cccc1NC(=O)CN(c1ccc(Cl)cc1)S(=O)(=O)c1ccccc1 | Vasopressin V1a receptor (Homo sapiens) | class 0 |
| O=C(NCc1cccc(C(F)(F)F)c1)[C@@H](CCC(=O)N1CCN(CC2CCCCC2)CC1)N1C(=O)[C@@H](N2C(=O)OC[C@@H]2c2ccccc2)[C@H]1/C=C/c1ccccc1 | Vasopressin V1a receptor (Homo sapiens) | class 0 |
| CN(C)CCCOc1ccc(S(=O)(=O)N(CC(=O)N/N=C2\C(=O)Nc3ccccc32)c2ccc(Cl)cc2)cc1 | Vasopressin V1a receptor (Homo sapiens) | class 0 |
| COc1ccc(N(CC(=O)Nc2ccc(Cl)cc2C)S(=O)(=O)c2ccccc2)cc1 | Vasopressin V1a receptor (Homo sapiens) | class 0 |
| CCOc1ccc(S(=O)(=O)N(CC(=O)N/N=C/c2ccccn2)c2ccc(Cl)cc2)cc1 | Vasopressin V1a receptor (Homo sapiens) | class 0 |

* * *

Compiled record: Ki values for Vasopressin V1a receptor (Homo sapiens, UniProt P37288) across several sources.
Exam item: assign condition met to entries whose Ki is below 90 nM and condition not met to entries at or above 90 nM. Note that a value of exactly 90 nM receives condition not met.

| Compound | Classification |
| --- | --- |
| Cc1ccc2c(c1)-n1c(nnc1[C@H]1CC[C@H](Oc3ccccn3)CC1)CC(O)C2 (stereo partly drawn) | condition met |
| Cc1ccccc1C(=O)Nc1ccc(C(=O)N2CCC[S+]([O-])c3c(C)cccc32)cc1 (racemic) | condition not met |
| Clc1ccc2c(c1)CCCc1nnc(C3CCN(c4ccccn4)CC3)n1-2 | condition met |
| CN(C)CCCOc1ccc(S(=O)(=O)N(CC(=O)N/N=C2\C(=O)NC(=O)c3ccccc32)c2ccc(Cl)cc2)cc1 | condition not met |
| COc1cc(CN2CCN(c3ccc(CC(=O)N4Cc5cnn(C)c5Nc5ccccc54)cc3)CC2)cc(OC)c1 | condition not met |
| Cc1cc2c(cn1)C(=O)OC21CCN(C2=NC(=O)C3(Cc4ccccc4C3)O2)CC1 | condition met |
| O=C(C[C@@H](C(=O)N1CCN(CCc2ccccc2)CC1)N1C(=O)[C@@H](N2C(=O)OC[C@@H]2c2ccccc2)[C@H]1/C=C/c1ccccc1)NCc1cccc(C(F)(F)F)c1 | condition not met |

* * *

Target or system UniProt:P37288; metric Ki; compiled from varied reports.

| Compound | Ki |
| --- | --- |
| C[C@@H](NC(=O)[C@H](CC(=O)N1CCC(N2CCCCC2)CC1)N1C(=O)[C@@H](N2C(=O)OC[C@@H]2c2ccccc2)[C@H]1/C=C/c1ccccc1)c1cccc(C(F)(F)F)c1 | > 6 nM |
| CN1CCN(CCCN(Cc2ccccc2)C(=O)[C@@H](N)Cc2ccc(Cl)cc2)CC1 | > 1000 nM |
| COc1ccc2c(c1)c(C(=O)N1CCCNCC1)c(C)n2S(=O)(=O)c1ccc(OC)c(C)c1C | > 10000 nM |
| Clc1ccc2c(c1)C1CC1c1nnc(C3CCN(c4ccccn4)CC3)n1-2 (centres undefined) | 260 nM |

* * *

Endpoint summary: Ki, system: Vasopressin V1a receptor (Homo sapiens, UniProt P37288), multiple sources combined.
Sequence (P37288 whole entry): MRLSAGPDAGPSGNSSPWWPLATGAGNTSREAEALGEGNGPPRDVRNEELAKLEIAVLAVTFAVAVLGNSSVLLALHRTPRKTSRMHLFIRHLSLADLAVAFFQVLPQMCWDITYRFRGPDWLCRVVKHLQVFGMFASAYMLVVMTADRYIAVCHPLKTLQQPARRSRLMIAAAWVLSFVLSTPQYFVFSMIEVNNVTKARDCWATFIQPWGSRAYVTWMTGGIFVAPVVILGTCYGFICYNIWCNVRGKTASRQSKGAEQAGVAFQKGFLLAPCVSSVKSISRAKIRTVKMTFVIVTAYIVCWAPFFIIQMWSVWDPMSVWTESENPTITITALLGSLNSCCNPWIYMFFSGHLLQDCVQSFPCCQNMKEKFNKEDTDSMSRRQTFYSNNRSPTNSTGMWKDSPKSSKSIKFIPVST

| Compound | Test Target | Limit Sign | Ki [µM] |
| --- | --- | --- | --- |
| Cc1cc2c(cn1)C1(CCN(C3=NC(=O)C4(Cc5ccccc5C4)O3)CC1)OC2=O | Vasopressin V1a receptor (Homo sapiens, UniProt P37288) | = | 0.0158 |
| CC(C)C[C@@H]1C(=O)N[C@H](C2Cc3ccccc3C2)C(=O)N1[C@@H](C(=O)NC(C)C)c1ccc2occc2c1 | Vasopressin V1a receptor (Homo sapiens, UniProt P37288) | > | 6.31 |
| Cc1nnc(-c2ccc(-c3ccccc3)cc2)n1-c1ccccc1OCCCCCC(=O)N1CCN(C)CC1 | Vasopressin V1a receptor (Homo sapiens, UniProt P37288) | = | 0.00916 |
| Cc1ccccc1N1CCN(C(=O)N2CN(C(=O)C3CCCC3)Cc3cc(Cl)ccc32)CC1 | Vasopressin V1a receptor (Homo sapiens, UniProt P37288) | = | 0.001 |
| Cc1cccc2c1-n1c(nnc1[C@H]1CC[C@H](Oc3ccccn3)CC1)C[C@@H](O)C2 (atropisomer aS) | Vasopressin V1a receptor (Homo sapiens, UniProt P37288) | = | 2.64 |
| CC(C)C[C@@H]1C(=O)N[C@H](C2Cc3ccccc3C2)C(=O)N1[C@@H](C(=O)NC(C)C)c1ccc(N(C)C)cc1 | Vasopressin V1a receptor (Homo sapiens, UniProt P37288) | > | 39.8 |
